Hello, the source for this data is the supplement of paper PMC9112550, in case you need it.

system: Escherichia coli TOP10; assay: shrunken log2 fold change of peptide-encoding DNA abundance (4.5 h post-induction vs induction); higher = less antimicrobial activity (less host growth inhibition); details: time post-induction: 4.5 h; library: site-saturation at positions 5, 18, 19, 20;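 also: peptides expressed intracellularly from a pBAD plasmid library in pooled LB shake-flask culture, induced with 0.3% L-arabinose, DNA abundance read by NGS, three biological replicates, DESeq2 with apeglm shrinkage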
Listed here are sequences together with their documented shrunken log2 fold change.
READOUT NAME: shrunken log2 fold change

RESIDUE SEQUENCE: RRIRGRPPRLPRPRPRPSQPPRP
RESULT VALUE: 0.138

RESIDUE SEQUENCE: RRIRMRPPRLPRPRPRPEATPRP
RESULT VALUE: 4.04

RESIDUE SEQUENCE: RRIRLRPPRLPRPRPRPNRKPRP
RESULT VALUE: -0.223

RESIDUE SEQUENCE: RRIRYRPPRLPRPRPRPANAPRP
RESULT VALUE: 0.00281

RESIDUE SEQUENCE: RRIRERPPRLPRPRPRPSDHPRP
RESULT VALUE: -0.133

RESIDUE SEQUENCE: RRIRGRPPRLPRPRPRPFEWPRP
RESULT VALUE: -0.127

RESIDUE SEQUENCE: RRIRSRPPRLPRPRPRPTNYPRP
RESULT VALUE: -0.44

RESIDUE SEQUENCE: RRIRMRPPRLPRPRPRPRANPRP
RESULT VALUE: 0.922

RESIDUE SEQUENCE: RRIRTRPPRLPRPRPRPSVLPRP
RESULT VALUE: -0.239

RESIDUE SEQUENCE: RRIRSRPPRLPRPRPRPDDSPRP
RESULT VALUE: -0.237

RESIDUE SEQUENCE: RRIRARPPRLPRPRPRPAVVPRP
RESULT VALUE: 0.16

RESIDUE SEQUENCE: RRIRMRPPRLPRPRPRPKHCPRP
RESULT VALUE: 0.0651

RESIDUE SEQUENCE: RRIRCRPPRLPRPRPRPNFFPRP
RESULT VALUE: 0.0889

RESIDUE SEQUENCE: RRIRQRPPRLPRPRPRPDNYPRP
RESULT VALUE: -0.194

RESIDUE SEQUENCE: RRIRERPPRLPRPRPRPYELPRP
RESULT VALUE: -0.563

RESIDUE SEQUENCE: RRIRVRPPRLPRPRPRPYPLPRP
RESULT VALUE: -0.478

RESIDUE SEQUENCE: RRIRFRPPRLPRPRPRPEHWPRP
RESULT VALUE: 0.0716

RESIDUE SEQUENCE: RRIRCRPPRLPRPRPRPYLRPRP
RESULT VALUE: -0.00889

RESIDUE SEQUENCE: RRIRVRPPRLPRPRPRPYAPPRP
RESULT VALUE: -0.0528

RESIDUE SEQUENCE: RRIRLRPPRLPRPRPRPHGDPRP
RESULT VALUE: -0.0331

RESIDUE SEQUENCE: RRIRTRPPRLPRPRPRPVWWPRP
RESULT VALUE: 0.423

RESIDUE SEQUENCE: RRIRGRPPRLPRPRPRPARQPRP
RESULT VALUE: 0.654

RESIDUE SEQUENCE: RRIRARPPRLPRPRPRPAMTPRP
RESULT VALUE: 0.356

RESIDUE SEQUENCE: RRIRERPPRLPRPRPRPPTWPRP
RESULT VALUE: 0.113

RESIDUE SEQUENCE: RRIRIRPPRLPRPRPRPNVHPRP
RESULT VALUE: -0.398

RESIDUE SEQUENCE: RRIRSRPPRLPRPRPRPPCTPRP
RESULT VALUE: -0.174

RESIDUE SEQUENCE: RRIRHRPPRLPRPRPRPWGLPRP
RESULT VALUE: -0.00494

RESIDUE SEQUENCE: RRIRMRPPRLPRPRPRPQYVPRP
RESULT VALUE: -0.0961
